Measured values drawn from the supplement of paper PMC9732359 for this set.

- assay: protein stability index of a GFP-peptide fusion (yeast GPS) (PSI 1-4); higher = more stable; sorted into four equal gates, so the index is relative within each strain
- details: ubr1∆
Categorized via protein stability index: low end: < 2; middle: ≥ 2 and < 3; high end: ≥ 3

Use these answered entries as a reference point.
NTSSKRQKKKPTSAQKS [IRR1]: middle
TPKLQTQLSYLISSSLS [YCS4]: middle
TSTPPPPPAPHNLHPQI [SNF5]: high end
LIGSIRFPTKFVTQFRH [RET1]: low end
KVFIRESLSLKNIHISK [YML103C/NUP188]: low end
FKGLETPLKARQREMAE [YLR018C/POM34]: high end

**Query** Which protein stability index band matches RDLILTEYGRKYNVNIS [PRP8] ?
**Result** middle

**Query** Which protein stability index band matches VINPQQLLKGLSLSFSK [DSN1] ?
**Result** high end

**Query** Which protein stability index band matches SDKIPYVAPTKKEYIEL [SRB4] ?
**Result** middle

**Query** Which protein stability index band matches GILGNKAQAKMDKRAKN [RPL8A] ?
**Result** high end

**Query** Which protein stability index band matches GINKNEEYRKQLDKKNE [SMC1] ?
**Result** middle

**Query** Which protein stability index band matches LSDLSSPVQDWNLLRSL [YML103C/NUP188] ?
**Result** middle

**Query** Which protein stability index band matches NEYVAKVSAREKSAYKF [FAS2] ?
**Result** high end

###

- assay: protein stability index of a GFP-peptide fusion (yeast GPS) (PSI 1-4); higher = more stable; sorted into four equal gates, so the index is relative within each strain
- details: ubr1∆
quantity-name: protein stability index
# respond with the number and nothing more

Record excerpt, results attached:
SYPVNGSQKTFEIDDEH [RPS6A]: 2.99
PLLTKRKDLRDKLICSI [DIS3]: 3.06
AIIRLHPSIYTQVFNIL [POP1]: 1.22
ILMQQQMMARMAQTATQ [SRP54]: 2.63
LSRKPSDNKKRSGSNAA [RPC82]: 3.03
SLKGYKIENSVQIGAEI [CSI1]: 3.17

**Query** Input PKTGKVERSEAISKKDL [SEC65] , output reported protein stability index.
**Result** 3.23

**Query** Input ERSLRQKYNLLHVLPTL [SNM1] , output reported protein stability index.
**Result** 1.35

**Query** Input PLGKILLKGDNITLITS [SME1] , output reported protein stability index.
**Result** 3.07

**Query** Input LDRELLKPSMSVALHRH [RPT3] , output reported protein stability index.
**Result** 2.7

###

Below: a set of entries, each annotated with reported protein stability index.
- assay: protein stability index of a GFP-peptide fusion (yeast GPS) (PSI 1-4); higher = more stable; sorted into four equal gates, so the index is relative within each strain
- details: doa10∆
# respond with the number and nothing more

QLNKVVDQLFEKASVLY [RPN6]: 2.55
GLFQVLHNFESVAPTKQ [NUT1]: 2.99

**Query** Input HQFHDILEEKTDLHLPK [NSL1] , output reported protein stability index.
**Result** 2.35

**Query** Input FNQEGDYNFKYGIPLEF [PRP8] , output reported protein stability index.
**Result** 3.14

**Query** Input LDRIPMHSYFIFKDLVT [COB] , output reported protein stability index.
**Result** 1.92

**Query** Input HGMDFTTDKLRSMVRKW [RPS1A] , output reported protein stability index.
**Result** 2.42

**Query** Input SKIQEIESIRSCKDSQL [YIL149C/MLP2] , output reported protein stability index.
**Result** 2.29

**Query** Input QSEDLSHAVEFFMSERS [YML103C/NUP188] , output reported protein stability index.
**Result** 3.29

**Query** Input RAPIYHSKFRSSSGNTW [YML031W/NDC1] , output reported protein stability index.
**Result** 2.43

###

- assay: protein stability index of a GFP-peptide fusion (yeast GPS) (PSI 1-4); higher = more stable; sorted into four equal gates, so the index is relative within each strain
- details: ubr1∆
quantity-name: protein stability index
# respond with the number and nothing more

Record excerpt, results attached:
SGTAATGAASNQSSFNF [YOR098C/NUP1]: 3.07
KERLTKEAAAIAEGKSK [RPL8B]: 2.38

**Query** Input RANLRKYREGQVLFQGL [POP1] , output reported protein stability index.
**Result** 2.96

**Query** Input SNDKFVHVQLLINLKIS [SRB8] , output reported protein stability index.
**Result** 1.61

###

Below: a set of entries, each annotated with reported protein stability index.
- assay: protein stability index of a GFP-peptide fusion (yeast GPS) (PSI 1-4); higher = more stable; sorted into four equal gates, so the index is relative within each strain
- details: doa10∆
# respond with the number and nothing more

Record excerpt, results attached:
MSNTLFDDIFQVSEVDP [RPB8]: 3.02
TENEKFISYHDKYLCML [NUT1]: 2.91
TRPLTLSHGSLEHVLLV [FAS1]: 2.39
DIIQGNPLMYSGGNNTA [PCI8]: 3.17
DKKYKGLTTVWLLSALG [REC8]: 2.24

**Query** Input NIDQEGSKQADRMAKYL [PGD1] , output reported protein stability index.
**Result** 3.4

**Query** Input KVSDPYVPTRNTFNYDV [RPN4] , output reported protein stability index.
**Result** 2.25

**Query** Input VKKLEIQQHARYDCSFC [RPL43A] , output reported protein stability index.
**Result** 2.73

**Query** Input LDLMFDEVYVQNSKFLK [YJL039C/NUP192] , output reported protein stability index.
**Result** 2.94

**Query** Input EAGLQLCRQGHNMLNLL [PRP8] , output reported protein stability index.
**Result** 2.24

**Query** Input FDKKSFFNGKALNNAIP [PRP8] , output reported protein stability index.
**Result** 2.06

**Query** Input VDNSPTTESNSRLKALN [YLR335W/NUP2] , output reported protein stability index.
**Result** 3.18

**Query** Input EKPLTPLKYTKLIAAAE [SNF6] , output reported protein stability index.
**Result** 1.25

###

- assay: protein stability index of a GFP-peptide fusion (yeast GPS) (PSI 1-4); higher = more stable; sorted into four equal gates, so the index is relative within each strain
- details: doa10∆
Returns condition met if the recorded protein stability index is greater than or equal to 2, and condition not met otherwise.

**Query** // inclusive: protein stability index at least 2? input: QSYFSQLKFEGFALNSD [BRR2]
**Result** condition not met

**Query** // inclusive: protein stability index at least 2? input: LSKLEKALDRHEFFIAN [SRP68]
**Result** condition met

**Query** // inclusive: protein stability index at least 2? input: LKIHQSHLVVPYCPIAS [YMR129W/POM152]
**Result** condition not met

**Query** // inclusive: protein stability index at least 2? input: KRRIEEEQEKINSAPDF [ISW2]
**Result** condition met

**Query** // inclusive: protein stability index at least 2? input: NFNSSLHKRQQFSESTH [YJL039C/NUP192]
**Result** condition met

**Query** // inclusive: protein stability index at least 2? input: SKTGSVDTLHNKEGTLE [SSN2]
**Result** condition met

**Query** // inclusive: protein stability index at least 2? input: SHTGLIRKYGLNICRQC [RPS29A]
**Result** condition not met

**Query** // inclusive: protein stability index at least 2? input: EVRILPRQRMEEVVSND [PRP8]
**Result** condition met

###

Below: a set of entries, each annotated with reported protein stability index.
- assay: protein stability index of a GFP-peptide fusion (yeast GPS) (PSI 1-4); higher = more stable; sorted into four equal gates, so the index is relative within each strain
- details: ubr1∆

VPQSEETRAELSQLCAV [RPO21]: 3.09
GLMLGEFVDDYTVNVVD [RPN11]: 3.09
SQQNIVPNSSDQAELPN [SNF2]: 3.01

Continue with the sequence presented below.
**Query** Input PRQRMEEVVSNDEGVWD [PRP8] , output reported protein stability index.
**Result** 3.06

###

- assay: protein stability index of a GFP-peptide fusion (yeast GPS) (PSI 1-4); higher = more stable; sorted into four equal gates, so the index is relative within each strain
- details: ubr1∆
quantity-name: protein stability index
# respond with the number and nothing more

NSAVNNAISNTQDDFTT [SRP54]: 3.31
KDSSLNYSSESYRNAFT [YJL039C/NUP192]: 2.85
CLDRCKEQYNRYRDLMI [MTR3]: 2.88
ELLETVSLTKRKQEREI [YIL149C/MLP2]: 1.12
IVMVWLKENTYVMERPK [YDL116W/NUP84]: 1.4

Continue with the sequence presented below.
**Query** Input KIRCFRYISTLTLYLFQ [IRR1] , output reported protein stability index.
**Result** 1.51
